Let's look at some pIC50 data for UniProtKB Q9NWZ3 that I collected from the literature.
Expect pIC50 as a plain number equal to -log10 of the molar concentration.

>  <mol>
COc1cc2nn([C@H]3CC[C@](C)(O)CC3)cc2cc1NC(=O)c1cccc(C(F)(F)F)n1

>  <assay.metric>
pIC50

>  <result.value>
8.57

$$$$
>  <mol>
COC(=O)N1CCC(n2cc(-c3cnc(-c4ccc5cc(C#N)cnn45)cc3NC(C)C)nn2)CC1

>  <assay.metric>
pIC50

>  <result.value>
9.00

$$$$
>  <mol>
CCNc1cc(Nc2ccc3ncnc(OC)c3c2)ncc1C(=O)NC[C@@H](F)C(C)(C)O

>  <assay.metric>
pIC50

>  <result.value>
7.87

$$$$

IN: Please state recorded pIC50 (tested on UniProtKB Q9NWZ3) of "CC(C)Nc1cc(-n2ncc3cc(C#N)cnc32)ncc1-c1cn(Cc2ccccn2)cn1"
OUT: 7.47

IN: Quick one: "CC(C)(O)c1cn2cc(NC(=O)c3coc(-c4ccnc(N)c4)n3)c(-c3ccccc3)cc2n1"
OUT: 10.00

IN: Quick one: "Cc1cc(Nc2nc(C)c(-c3nc4ccccc4s3)c(N[C@@H]3C[C@H](CO)[C@@H](O)[C@H]3O)n2)ccn1"
OUT: 6.86

IN: Quick one: "CC[C@@H](C)Nc1cc(-c2cnn3cc(C#N)cnc23)ncc1C(=O)NC[C@@H](F)C(C)(C)O"
OUT: 8.40

IN: Quick one: "COc1cncc(-c2ccc3ncnc(N[C@H]4CC[C@H](N(C)C)CC4)c3c2)c1"
OUT: 7.60

* * *

Let's look at some pIC50 data for IRAK4 (Homo sapiens (Human)) that I collected from the literature.
Expect pIC50 as a plain number equal to -log10 of the molar concentration.

>  <mol>
CC(C)(O)[C@H](F)CNC(=O)c1cnc(Nc2ccc3ncncc3c2)cc1NC1CCC1

>  <result.value>
8.57

$$$$
>  <mol>
COc1cc2nn([C@H]3CC[C@@H](O)CC3)cc2cc1NC(=O)c1cccc(C(C)C)[n+]1[O-]

>  <result.value>
7.89

$$$$
>  <mol>
CNC(=O)[C@H]1CC[C@H](NC(=O)c2cnc(Nc3nc4ccnn4cc3F)cc2NC2CC2)CC1

>  <result.value>
7.99

$$$$
>  <mol>
COC(=O)NC[C@H]1C[C@H](Nc2cc(-c3ccc4cc(C#N)cnn34)ncc2-c2nnn(C[C@@H](F)C(C)(C)O)c2F)C1

>  <result.value>
8.52

$$$$

// below: pIC50 requested for another compound
IN: Please state recorded pIC50 (tested on IRAK4 (Homo sapiens (Human))) of "O=C(O)Cc1nsc2nc(Nc3cnn(C4CCOCC4)c3)nc(N[C@H]3CC[C@H](N4CCOCC4)CC3)c12"
OUT: 7.77

* * *

Let's look at some pIC50 data for IRAK4 (Homo sapiens (Human), UniProt Q9NWZ3) that I collected from the literature.
Expect pIC50 as a plain number equal to -log10 of the molar concentration.

>  <mol>
CC(C)Nc1cc(-n2ncc3cc(C(N)=O)cnc32)ncc1-c1cn([C@@H]2CCNC[C@@H]2O)nn1

>  <tested.target>
IRAK4 (Homo sapiens (Human), UniProt Q9NWZ3)

>  <result.value>
6.52

$$$$
>  <mol>
CC(C)Nc1c(C(=O)NC2CN(S(C)(=O)=O)C2)cnc2ccc(-c3cn[nH]c3)cc12

>  <tested.target>
IRAK4 (Homo sapiens (Human), UniProt Q9NWZ3)

>  <result.value>
7.49

$$$$

// below: pIC50 requested for another molecule
IN: Which pIC50 is listed for "CC(C)Nc1c(C(=O)NCCC(C)(C)O)cnc2c1Oc1cc(C#N)ccc1O2" ?
OUT: 7.66

* * *

Let's look at some IC50 data for IRAK4 (Homo sapiens (Human)) that I collected from the literature.
Criterion: IC50 strictly less than 7 nM. Met: true (1). Not met: false (0).

>  <compound>
CCCn1cc(-c2cnc(-n3ncc4cc(Cl)cnc43)cc2NC(C)C)nn1

>  <label>
false (0)

$$$$
>  <compound>
CC(C)Nc1cc(-n2ncc3cc(C#N)cnc32)ncc1-c1cn(CC(=O)N2CCNCC2)nn1

>  <label>
true (1)

$$$$
>  <compound>
CC(C)(O)[C@H](F)CNC(=O)c1cnc(-c2ccc3cc(C#N)cnn23)cc1N[C@H]1CC[C@H](n2ccc(C(F)F)n2)CC1

>  <label>
true (1)

$$$$
>  <compound>
CC(=O)N[C@H]1CC[C@H](NC(=O)c2cnc3ccc(-c4cn[nH]c4)cc3c2NC(C)C)CC1

>  <label>
false (0)

$$$$
>  <compound>
CC(C)Nc1cc(-c2cnc3cc(C#N)cnn23)ncc1C(=O)NC[C@H](F)C(C)(C)O

>  <label>
false (0)

$$$$

IN: Hello, is IC50 of the following compound strictly smaller than 7 nM? C[C@]12CC[C@](c3cn4cc(C(=O)Nc5cccn(C6CC6)c5=O)c(OC5CCC5)nc4n3)(CO1)C2 (single isomer, unassigned)
OUT: true (1)

IN: Quick one: "CC(C)Nc1cc(-n2cnc3cc(C#N)cnc32)ncc1-c1cn(CC(C)(C)O)nn1"
OUT: false (0)

IN: Quick one: "CC(C)(O)[C@H](F)CNC(=O)c1cnc(-c2cnn3cc(Cl)cnc23)cc1NC1CCN(S(C)(=O)=O)CC1"
OUT: true (1)

* * *

Let's look at some pIC50 data for IRAK4 (Homo sapiens (Human), UniProt Q9NWZ3) that I collected from the literature.
Expect pIC50 as a plain number equal to -log10 of the molar concentration.

Solved entries (count: 4):
>  <molecule>
COc1cc2nn(C3CCS(=N)(=O)CC3)cc2cc1NC(=O)c1cccc(C(F)(F)F)n1 (single isomer, unassigned)

>  <tested.target>
IRAK4 (Homo sapiens (Human), UniProt Q9NWZ3)

>  <assay.metric>
pIC50

>  <result.value>
8.40

$$$$
>  <molecule>
CC(C)Nc1cc(Nc2ccc3ncsc3c2)ncc1-c1nnc(-c2cccc(C(N)=O)c2)o1

>  <tested.target>
IRAK4 (Homo sapiens (Human), UniProt Q9NWZ3)

>  <assay.metric>
pIC50

>  <result.value>
6.25

$$$$
>  <molecule>
c1nc(N[C@H]2CC[C@H](N3CCOCC3)CC2)c2cc(C3CCCCC3)ccc2n1

>  <tested.target>
IRAK4 (Homo sapiens (Human), UniProt Q9NWZ3)

>  <assay.metric>
pIC50

>  <result.value>
7.72

$$$$
>  <molecule>
CC(C)(O)CCc1cn(-c2cnc(-c3cnn4cc(C#N)cnc34)cc2N[C@H]2CC[C@H](F)C2)nn1

>  <tested.target>
IRAK4 (Homo sapiens (Human), UniProt Q9NWZ3)

>  <assay.metric>
pIC50

>  <result.value>
8.30

$$$$

IN: Which pIC50 is listed for C[C@@H](Oc1cc2nc(C34COC(C)(C3)C4)cn2cc1C(=O)Nc1cccn(C2C[C@H]2F)c1=O)C(F)F (stereo partly shown) ?
OUT: 10.00

IN: Quick one: "CC(C)Nc1cc(Nc2ccc3ncsc3c2)ncc1-c1nnc(N2CCN(CCO)CC2)o1"
OUT: 7.60

IN: Quick one: "CC(C)Nc1c(C(=O)NCCC2CC2)cnc2ccc(-c3cncc(C#N)c3)nc12"
OUT: 5.89

IN: Quick one: "CCn1cc(-c2cccc(C(=O)Nc3cn(C4CN(C5CCN(C(C)=O)CC5)C4)nc3C(F)F)n2)cn1"
OUT: 8.48

IN: Quick one: "CC(C)Nc1cc(-n2cnc3cc(C#N)cnc32)ncc1-c1cn(C2CCOCC2)nn1"
OUT: 8.52

IN: Quick one: "CC(C)Nc1c(C(=O)NC2CCOCC2)cnc2ccc(-c3cn[nH]c3)cc12"
OUT: 7.63

IN: Quick one: "Cc1ccc(-n2nc(N3CCN([C@@H]4CCS(=O)(=O)C4)CC3)cc2NC(=O)c2cnn3cccnc23)nc1"
OUT: 9.00

IN: Quick one: COc1cc2nn(C3CCN(CC4CCN(c5ccc6c(c5)C(=O)N(C5CCC(=O)NC5=O)C6=O)CC4)CC3)cc2cc1NC(=O)c1cccc(C(F)(F)F)n1 (stereo not shown)
OUT: 7.03

IN: Quick one: CC(C)(O)[C@H](F)CNC(=O)c1cnc(-c2cnc3cc(C#N)cnn23)cc1NC1CCOC1 (stereo partly shown)
OUT: 8.52

IN: Quick one: "CC(C)Nc1cc(Nc2ccc3nccnc3c2)ncc1C(=O)NC[C@@H](F)C(C)(C)O"
OUT: 8.23

* * *

Let's look at some pIC50 data for IRAK4 (Homo sapiens (Human)) that I collected from the literature.
pIC50: −log10 of the molar value.
Note to self: values exactly at 8 are 1 (yes). So pIC50 at or above 8 is 1 (yes), below is 0 (no).

>  <compound>
c1cncc(-c2ccc3ncnc(N[C@H]4CC[C@H](N5CCOCC5)CC4)c3c2)c1

>  <label>
0 (no)

$$$$
>  <compound>
c1nc(N[C@H]2CC[C@H](N3CCOCC3)CC2)c2cc(C3CCCO3)ccc2n1 (stereo partly shown)

>  <label>
0 (no)

$$$$
>  <compound>
C[C@H](CO)Nc1c(C(=O)NCCC(C)(C)O)cnc2sc(-c3ccccc3)nc12

>  <label>
0 (no)

$$$$
>  <compound>
CC(C)Nc1cc(-n2ccc3cncnc32)ncc1-c1cn([C@H]2CCNC[C@H]2O)nn1

>  <label>
1 (yes)

$$$$
>  <compound>
CC(C)(O)CCc1cn(-c2cnc(-n3ncc4cc(C#N)cnc43)cc2NC2CCOC2)nn1 (stereo not shown)

>  <label>
1 (yes)

$$$$

IN: Given the entry "c1[nH]c2ncc3nc(C4CCN(C5COC5)CC4)cn3c2c1C1CCOCC1" , answer whether its pIC50 meets or surpasses 8.
OUT: 0 (no)

IN: Quick one: "CC(C)Nc1c(C(=O)NCCC2CC2)cnc2sc(-c3cccnc3)nc12"
OUT: 0 (no)

IN: Quick one: "CC(C)Nc1cc(-c2ccc3cc(C#N)cnn23)ncc1-c1cn(C2CCOCC2)nn1"
OUT: 1 (yes)

IN: Quick one: "CC(C)(O)[C@H](F)CNC(=O)c1cnc(-c2ccc3cc(C#N)cnn23)cc1N[C@H]1CC[C@H](c2cnn(C(F)F)n2)CC1"
OUT: 1 (yes)

IN: Quick one: "CN(C)CCc1cn2cc(NC(=O)c3coc(-c4ccnc(N)c4)n3)c(N3CCCCC3)cc2n1"
OUT: 1 (yes)

IN: Quick one: "Cn1cc(Nc2cc(-c3cnc4cc(Cl)cnn34)ncc2C(=O)NC[C@@H](F)C(C)(C)O)cn1"
OUT: 1 (yes)

IN: Quick one: "CC(C)(O)[C@H](F)CNC(=O)c1cnc(-c2ccc3cc(C#N)cnn23)cc1N[C@H]1CC[C@H](c2ccn(C(F)F)n2)CC1"
OUT: 1 (yes)

IN: Quick one: "CC[C@H](C)Oc1nc2nc([C@]34CC[C@](C)(C3)OC4)cn2cc1C(=O)Nc1cccn(C2CC2)c1=O"
OUT: 1 (yes)
